Target: CaBdf1 BD1 (Candida albicans)
Construct: made in house; host or cells: E. coli BL21(DE3)
Sequence (Q5A4W8 193-327): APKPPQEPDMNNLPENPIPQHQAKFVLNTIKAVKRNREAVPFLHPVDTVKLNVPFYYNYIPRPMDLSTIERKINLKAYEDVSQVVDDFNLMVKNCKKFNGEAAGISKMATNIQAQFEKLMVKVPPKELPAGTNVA
Test: HTRF assay, inhibition of BD binding to H4ac4 peptide
Set-up: species or system C. albicans
Conditions: IC50 values, HTRF, H4ac4 peptide; BETi, maximal concentration 10 μM
readout-label: IC50

Quick check: IC50 of Cc1sc2c(c1C)C(c1ccc(Cl)cc1)=N[C@@H](CC(=O)OC(C)(C)C)c1nnc(C)n1-2 [JQ1, reference compound] ?
> 10 µM
